Experimental target: Cholecystokinin receptor type A (Mus musculus, UniProt O08786)
Sequence (O08786 whole entry): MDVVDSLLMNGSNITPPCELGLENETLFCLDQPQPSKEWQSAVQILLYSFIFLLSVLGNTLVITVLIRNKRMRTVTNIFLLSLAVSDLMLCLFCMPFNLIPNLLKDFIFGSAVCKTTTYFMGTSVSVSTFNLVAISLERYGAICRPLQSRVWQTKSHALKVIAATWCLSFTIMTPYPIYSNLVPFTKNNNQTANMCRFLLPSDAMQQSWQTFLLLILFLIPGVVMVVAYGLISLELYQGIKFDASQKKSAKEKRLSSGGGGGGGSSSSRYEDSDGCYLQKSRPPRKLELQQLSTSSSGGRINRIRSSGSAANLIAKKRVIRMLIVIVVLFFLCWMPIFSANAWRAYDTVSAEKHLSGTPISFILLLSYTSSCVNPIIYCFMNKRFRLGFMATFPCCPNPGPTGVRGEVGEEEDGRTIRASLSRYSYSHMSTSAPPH
Result type: IC50 (nM)
Output spec: scalar in nM, unitless text.

CC(C)C[C@H](NC(=O)[C@H](Cc1c[nH]c2ccccc12)NC(=O)/C=C/c1ccccc1)C(=O)N1CC(=O)N[C@@H](Cc2ccccc2)C1 520
CC(C)C[C@H](NC(=O)[C@@H](Cc1c[nH]c2ccccc12)NC(=O)OC(C)(C)C)C(=O)N1CC(=O)N[C@@H](Cc2ccccc2)C1 5500
CC(C)C[C@H](NC(=O)[C@H](Cc1c[nH]c2ccccc12)NC(=O)OC(C)(C)C)C(=O)N1CC(=O)N[C@@H](Cc2ccccc2)C1 270
CC(C)C[C@H](NC(=O)[C@H](Cc1c[nH]c2ccccc12)NC(=O)OC(C)(C)C)C(=O)N1CC(=O)N[C@H](Cc2ccccc2)C1 46
CC(C)C[C@H](NC(=O)CCc1c[nH]c2ccccc12)C(=O)N1C[C@H](Cc2ccccc2)NC(=O)[C@@H]1CC(=O)O 56000

Q) Could you share which IC50 value was measured for CC(C)C[C@H](NC(=O)[C@H](Cc1c[nH]c2ccccc12)NC(=O)OC(C)(C)C)C(=O)N1C[C@H](CCc2ccccc2)NC(=O)[C@@H]1CC(=O)O ?
A) 630

Q) Also, CC(C)C[C@H](NC(=O)Cc1c[nH]c2ccccc12)C(=O)N1C[C@H](Cc2ccccc2)NC(=O)[C@@H]1CC(=O)O please.
A) 13000

====

Experimental target: Gastrin/cholecystokinin type B receptor (Mus musculus, UniProt P56481)
Sequence (P56481 whole entry): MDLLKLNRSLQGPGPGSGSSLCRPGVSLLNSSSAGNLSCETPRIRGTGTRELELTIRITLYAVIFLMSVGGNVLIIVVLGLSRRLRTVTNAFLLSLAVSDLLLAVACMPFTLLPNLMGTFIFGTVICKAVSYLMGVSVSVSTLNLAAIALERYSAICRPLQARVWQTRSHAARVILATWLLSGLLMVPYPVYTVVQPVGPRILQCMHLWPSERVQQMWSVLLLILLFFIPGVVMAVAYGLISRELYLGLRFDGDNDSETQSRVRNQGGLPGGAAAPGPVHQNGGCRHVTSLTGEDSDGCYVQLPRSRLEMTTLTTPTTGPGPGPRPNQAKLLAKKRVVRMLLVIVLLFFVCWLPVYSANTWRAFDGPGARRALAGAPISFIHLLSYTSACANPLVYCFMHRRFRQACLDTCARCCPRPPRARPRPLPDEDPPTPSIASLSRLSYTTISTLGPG
IC50 values for the compounds below.
Output spec: scalar in µM, unitless text.

CC(C)C[C@H](NC(=O)Cc1c[nH]c2ccccc12)C(=O)N1C[C@H](Cc2ccccc2)NC(=O)[C@@H]1CC(=O)O 2.5

Q) Could you share which IC50 value was measured for CCCC[C@H](NC(=O)Cc1c[nH]c2ccccc12)C(=O)N1C[C@H](Cc2ccccc2)NC(=O)[C@@H]1CC(=O)O ?
A) 1.2

Q) Also, CCOC(=O)N[C@@H](Cc1c[nH]c2ccccc12)C(=O)N[C@@H](CC(C)C)C(=O)N1CC(=O)N[C@@H](Cc2ccccc2)C1 please.
A) 38

Q) Also, CC(C)C[C@H](NC(=O)[C@H](Cc1c[nH]c2ccccc12)NC(=O)OC(C)(C)C)C(=O)N1CC(=O)N[C@@H](Cc2ccccc2)C1 please.
A) 37

Q) Also, CC(C)C[C@H](NC(=O)[C@H](Cc1c[nH]c2ccccc12)NC(=O)OC(C)(C)C)C(=O)N1CC(=O)N[C@H](Cc2ccccc2)C1 please.
A) 39
